FYI, the data here is from patent US12600732B2.

# Tested on: primary human T cells
# run description: T cell activation assay, IL-2 secretion (ELISA)
# Type: cell-based
# setup conditions: primary human T cells
endpoint: IL-2 secretion compared to baseline (anti-CD3/anti-CD28 stimulation alone)

molecule	result
Nc1cccc2c1C(=O)N(C1CCC(=O)NC1=O)C2=O (stereo not drawn) [Pomalidomide, pomalidomide, reference compound]	induce IL-2 secretion
Nc1cccc2c1CN(C1CCC(=O)NC1=O)C2=O (stereo not drawn) [Lenalidomide, lenalidomide, reference compound]	induce IL-2 secretion

###

# maps each entry to its AUC
# run description: PK data for BTK CTMs (in vivo plasma concentrations)
# setup conditions: Rat Sprague-Dawley, 30 mg/kg PO
Field: numeric (µM·h). Do not append units.

Enquiry: Fill in the blank: the reported AUC of CN1CCN([C@@H]2CCCN(c3cnc(C(N)=O)c(Nc4ccc(C5CCN(CC6CCN(c7ccc(-c8nn(C9CCC(=O)NC9=O)c(=O)n8C)cc7)CC6)CC5)cc4)n3)C2)C1=O (some centres unmarked) [Compound 121] is ____.
Return: 0.73

Enquiry: Fill in the blank: the reported AUC of CN1CCN([C@H]2CCCN(c3cnc(C(N)=O)c(Nc4ccc(C5CCN(CC6CCN(c7ccc(C(=O)NC8CCC(=O)NC8=O)nc7)CC6)CC5)cc4)n3)C2)C1=O (some centres unmarked) [Compound 130] is ____.
Return: 1.62

###

# run description: PK data for BTK CTMs (in vivo plasma concentrations)
# setup conditions: Mouse Balb/c, 10 mg/kg PO
endpoint: AUC
Answer format reminder: number followed by unit.

Enquiry: Fill in the blank: the reported AUC of CN1CCN([C@@H]2CCCN(c3cnc(C(N)=O)c(Nc4ccc(C5CCN(C[C@H]6CCN(c7ccc8c(c7)C(=O)N(C7CCC(=O)NC7=O)C8=O)C6)CC5)cc4)n3)C2)C1=O (stereo partly drawn) is ____.
Return: 4 µM·h

Enquiry: Fill in the blank: the reported AUC of CN1CCN([C@@H]2CCCN(c3cnc(C(N)=O)c(Nc4ccc(C5CCN(CC6CCN(c7ccc8c(=O)n(C9CCC(=O)NC9=O)ccc8c7)CC6)CC5)cc4)n3)C2)C1=O (stereo partly drawn) is ____.
Return: 2.9 µM·h

Enquiry: Fill in the blank: the reported AUC of NC(=O)c1ncc(N2CCC[C@@H](N3CCOC3=O)C2)nc1Nc1ccc(C2CCN(C[C@H]3CCN(c4ccc5c(c4)C(=O)N(C4CCC(=O)NC4=O)C5=O)C3)CC2)cc1 (stereo partly drawn) is ____.
Return: 2.9 µM·h

###

# run description: PK data for BTK CTMs (in vivo plasma concentrations)
# setup conditions: Monkey cynomolgus, 0.75 mg/kg IV, read-out: Volume of Distribution
endpoint: Vd (L/kg)
Field: numeric (L/kg). Do not append units.

Enquiry: Fill in the blank: the reported Vd of CN1CCN([C@H]2CCCN(c3cnc(C(N)=O)c(Nc4ccc(C5CCN(CC6CCN(c7ccc(C(=O)NC8CCC(=O)NC8=O)nc7)CC6)CC5)cc4)n3)C2)C1=O (stereo partly shown) is ____.
Return: 16

###

# Tested on: primary human T cells
# run description: T cell activation assay, IL-2 secretion (ELISA)
# Type: cell-based
# setup conditions: 1.4 nM; fold-change of response relative to baseline
# maps each entry to its IL-2 Secretion Anti-CD3/Anti-CD28 Stimulation
Please state the value as a number alone, without comment.

Please review the following examples before continuing.
compound	quantitative readout
CN1CCN([C@@H]2CCCN(c3cnc(C(N)=O)c(Nc4ccc5c(c4)CCN(C4CN(c6ccc7c(c6)C(=O)N(C6CCC(=O)NC6=O)C7=O)C4)C5)n3)C2)C1=O (stereo partly drawn)	1.59
Nc1cccc2c1CN(C1CCC(=O)NC1=O)C2=O (stereo not drawn) [Lenalidomide, lenalidomide, reference compound]	1.63

Enquiry: Reported IL-2 Secretion Anti-CD3/Anti-CD28 Stimulation for primary human T cells, given CN1CCN([C@H]2CCCN(c3cnc(C(N)=O)c(Nc4cnn(C5CCN(CC6CN(c7ccc8c(c7)C(=O)N(C7CCC(=O)NC7=O)C8=O)C6)CC5)c4)n3)C2)C1=O (stereo partly drawn) ?
Return: 1.00
